Listed next: entries and their corresponding IC50.
# Target of assay: HSP90α protein (N-terminal) (Homo sapiens)
# Construct: purchased BPS Bioscience #50298
# Assay procedure: HSP90α-binding fluorescent polarization (FP) assay, competition with BODIPY-labeled RNK04010
# Details: probe RNK04010 (BODIPY-labeled) 5 nM, 25° C. 300 min

Use the examples below as a reference point.
Kindly indicate its recorded IC50. Item: `Cc1sc2c(c1C)C(c1ccc(Cl)cc1)=N[C@@H](CC(=O)N1CCC(CN3CCN(Cc4ccc(-n5c(C(=O)NC(C)C)nnc5-c5cc(C(C)C)c(O)cc5O)cc4)CC3)CC1)c1nnc(C)n1-2` 100 to 1000 nM

Kindly indicate its recorded IC50. Item: `CCc1cc(-c2nnc(C(=O)NC3(C)CC3)n2-c2ccc(CN3CCN(CC4CCN(C(=O)C[C@@H]5N=C(c6ccc(Cl)cc6)c6c(sc(C)c6C)-n6c(C)nnc65)CC4)CC3)cc2)c(O)cc1O` < 100 nM

Consider the additional compound presented here.
Kindly indicate its recorded IC50. Item: CCc1cc(-c2nnc(C(=O)NC(C)C)n2-c2ccc(CN3CCN(CC4CCN(C(=O)C[C@@H]5N=C(c6ccc(Cl)cc6)c6c(sc(C)c6C)-n6c(C)nnc65)CC4)CC3)cc2)c(O)cc1O [Compound 102] < 100 nM

---

Listed next: entries and their corresponding pIC50.
# Target of assay: HSP90α protein (N-terminal) (Homo sapiens, UniProt P07900)
# Construct: purchased BPS Bioscience #50298
# Assay procedure: HSP90α-binding fluorescent polarization (FP) assay, competition with BODIPY-labeled RNK04010
# Details: probe RNK04010 (BODIPY-labeled) 5 nM, 25° C. 300 min
pIC50: −log10 of the molar value.

Use the examples below as a reference point.
Kindly indicate its recorded pIC50. Item: `Cc1sc2c(c1C)C(c1ccc(Cl)cc1)=N[C@@H](CC(=O)N1CCN(Cc3ccc(-n4c(O)nnc4-c4cc(C(C)C)c(O)cc4O)cc3)[C@@H](C)C1)c1nnc(C)n1-2` 6.00 to 7.00

Kindly indicate its recorded pIC50. Item: `CCOc1cc(N2CCC(C(=O)NCc3ccc(-n4c(O)nnc4-c4cc(CC)c(O)cc4O)cc3F)CC2)ccc1Nc1ncc2c(n1)N(C)c1ccccc1C(=O)N2C` < 6.00

Kindly indicate its recorded pIC50. Item: `CCOc1cc(N2CCC(C(=O)NCc3ccc(CN4CCC(Cc5ccc(-n6c(C(=O)NC(C)C)nnc6-c6cc(C(C)C)c(O)cc6O)cc5)CC4)cc3)CC2)ccc1Nc1ncc2c(n1)N(C)c1ccccc1C(=O)N2C` 6.00 to 7.00

Kindly indicate its recorded pIC50. Item: `CCOc1cc(N2CCC(C(=O)NCc3ccc(-n4c(O)nnc4-c4cc(C)c(O)cc4O)cc3)CC2)ccc1Nc1ncc2c(n1)N(C)c1ccccc1C(=O)N2C` 6.00 to 7.00

Consider the additional compound presented here.
Kindly indicate its recorded pIC50. Item: CC[C@@H](C)Nc1cc(C(=O)NC2CC3CCC(C2)N3c2ccc(C(=O)c3ccc(CN4CCN(CC5CCN(C(=O)C[C@@H]6N=C(c7ccc(Cl)cc7)c7c(sc(C)c7C)-n7c(C)nnc76)CC5)CC4)cc3)cn2)c(C)cc1C(N)=O (some centres unmarked) < 6.00

---

# Target of assay: HSP90α protein (N-terminal) (Homo sapiens, UniProt P07900)
# Construct: purchased BPS Bioscience #50298
# Assay procedure: HSP90α-binding fluorescent polarization (FP) assay, competition with BODIPY-labeled RNK04010
# Details: probe RNK04010 (BODIPY-labeled) 5 nM, 25° C. 300 min
pIC50: −log10 of the molar value.
Recorded metric: pIC50

Kindly indicate its recorded pIC50. Item: Cc1sc2c(c1C)C(c1ccc(Cl)cc1)=N[C@@H](CC(=O)N1CCC(CN3CCN(Cc4ccc(-n5c(C(N)=O)nnc5-c5cc(C(C)C)c(O)cc5O)cc4)CC3)CC1)c1nnc(C)n1-2 [Compound 78] > 7.00

Kindly indicate its recorded pIC50. Item: Cc1sc2c(c1C)C(c1ccc(Cl)cc1)=N[C@@H](CC(=O)N1CCN(Cc3ccc(-n4c(O)nnc4-c4cc(C(C)C)c(O)cc4O)cc3)[C@H](C)C1)c1nnc(C)n1-2 [Compound 106] 6.00 to 7.00

Next:
Kindly indicate its recorded pIC50. Item: CCN(Cc1ccc(OCCCNC(=O)C[C@@H]2N=C(c3ccc(Cl)cc3)c3c(sc(C)c3C)-n3c(C)nnc32)cc1)Cc1ccc(-n2c(C(=O)NCC(F)(F)F)nnc2-c2cc(C(C)C)c(O)cc2O)cc1 [Compound 72] 6.00 to 7.00

Kindly indicate its recorded pIC50. Item: CCCc1cc(-c2nnc(C(=O)NCCN3CCCCC3)n2-c2ccc(CN3CCN(CC4CCN(C(=O)C[C@@H]5N=C(c6ccc(Cl)cc6)c6c(sc(C)c6C)-n6c(C)nnc65)CC4)CC3)cc2)c(O)cc1O [Compound 92] > 7.00

---

# Target of assay: HSP90α protein (N-terminal) (Homo sapiens, UniProt P07900)
# Construct: purchased BPS Bioscience #50298
# Assay procedure: HSP90α-binding fluorescent polarization (FP) assay, competition with BODIPY-labeled RNK04010
# Details: probe RNK04010 (BODIPY-labeled) 5 nM, 25° C. 300 min
Recorded metric: IC50

Use the examples below as a reference point.
System HSP90α protein (N-terminal) (Homo sapiens, UniProt P07900). Read-out IC50. Item `COc1cccc(-c2cc(C(=O)Nc3ccc(-c4ccc(OC5CCN(C(=O)C[C@@H]6N=C(c7ccc(Cl)cc7)c7c(sc(C)c7C)-n7c(C)nnc76)CC5)cc4O)cc3)ccc2OC)c1` . Report value. > 1000 nM

System HSP90α protein (N-terminal) (Homo sapiens, UniProt P07900). Read-out IC50. Item `CCOc1cc(N2CCC(C(=O)NCc3ccc(-n4c(O)nnc4-c4cc(C(C)C)c(O)cc4O)cc3C(F)(F)F)CC2)ccc1Nc1ncc2c(n1)N(C)c1ccccc1C(=O)N2C` . Report value. 100 to 1000 nM

Next:
System HSP90α protein (N-terminal) (Homo sapiens, UniProt P07900). Read-out IC50. Item `CCc1cc(-c2nnc(C(=O)NC(CC)CC)n2-c2ccc(CN3CCN(CC4CCN(C(=O)C[C@@H]5N=C(c6ccc(Cl)cc6)c6c(sc(C)c6C)-n6c(C)nnc65)CC4)CC3)cc2)c(O)cc1O` . Report value. 100 to 1000 nM

---

Listed next: entries and their corresponding pIC50.
# Target of assay: HSP90α protein (N-terminal) (Homo sapiens, UniProt P07900)
# Construct: purchased BPS Bioscience #50298
# Assay procedure: HSP90α-binding fluorescent polarization (FP) assay, competition with FITC-geldanamycin
# Details: probe FITC-geldanamycin 5 nM, 25° C. 120 min
pIC50: −log10 of the molar value.

Kindly indicate its recorded pIC50. Item: `Cc1cc(-c2nnc(O)n2-c2ccc(CN3CCN(CC4CCN(C(=O)C[C@@H]5N=C(c6ccc(Cl)cc6)c6c(sc(C)c6C)-n6c(C)nnc65)CC4)CC3)c(F)c2)c(O)cc1O` 6.00 to 7.00

Kindly indicate its recorded pIC50. Item: `CCc1cc(-c2nnc(O)n2-c2ccc(CN3CCN(CC4CCN(C(=O)C[C@@H]5N=C(c6ccc(Cl)cc6)c6c(sc(C)c6C)-n6c(C)nnc65)CC4)CC3)c(F)c2)c(O)cc1O` 6.00 to 7.00

Kindly indicate its recorded pIC50. Item: CC[C@@H](C)Nc1cc(C(=O)NC2CC3CCC(C2)N3c2ccc(C(=O)Nc3ccc(CN4CCN(CC5CCN(C(=O)C[C@@H]6N=C(c7ccc(Cl)cc7)c7c(sc(C)c7C)-n7c(C)nnc76)CC5)CC4)cc3)cn2)ccc1C(N)=O (stereo partly shown) < 6.00

Kindly indicate its recorded pIC50. Item: `Cc1sc2c(c1C)C(c1ccc(Cl)cc1)=N[C@@H](CC(=O)NCCOc1ccccc1CN(C)Cc1ccc(-n3c(O)nnc3-c3cc(C(C)C)c(O)cc3O)cc1)c1nnc(C)n1-2` 6.00 to 7.00

Kindly indicate its recorded pIC50. Item: `Cc1sc2c(c1C)C(c1ccc(Cl)cc1)=N[C@@H](CC(=O)NCCOCCN1CCC(Cc3ccc(-n4c(O)nnc4-c4cc(C(C)C)c(O)cc4O)cc3)CC1)c1nnc(C)n1-2` 6.00 to 7.00

Kindly indicate its recorded pIC50. Item: `Cc1sc2c(c1C)C(c1ccc(Cl)cc1)=N[C@@H](CC(=O)N[C@@H](C)c1ccc(CN3CCC(Cc4ccc(-n5c(O)nnc5-c5cc(C(C)C)c(O)cc5O)cc4)CC3)cc1)c1nnc(C)n1-2` 6.00 to 7.00

Consider the additional compound presented here.
Kindly indicate its recorded pIC50. Item: `Cc1sc2c(c1C)C(c1ccc(Cl)cc1)=N[C@@H](CC(=O)N[C@@H](C)c1ccc(CN3CCN(Cc4ccc(-n5c(O)nnc5-c5cc(C(C)C)c(O)cc5O)cc4)CC3)cc1)c1nnc(C)n1-2` 6.00 to 7.00
